From: a melting point compilation (Tetko et al.; mined from patent text by program, amines drawn as free bases though some values may be those of a salt)

Listing of recorded melting point by entry.
measurement label: melting point

compound=COc1ccccc1Oc1c(NS(=O)(=O)c2ccc3c(c2)OCO3)nc(-c2ccnc(-c3nnn[nH]3)c2)nc1OCCO result="227 to 229 °C"
compound=O=C(NCc1ccccc1)[C@@H]1CCCCN1 result="103 to 104 °C"
compound="CC(CC(C)C1CCC2C3C(O)CC4CC(O)CCC4(C)C3CCC12C)C(=O)O (stereo not given)" result="125 to 127 °C"
compound=CCOCc1nc2c(N)nc3cc(-c4cccnc4)ccc3c2n1CCNS(C)(=O)=O result="233 to 235 °C"
compound="CCCCc1oc2ccc(NS(C)(=O)=O)cc2c1C(O)c1ccc(OCCCN(CCCC)CCCC)cc1 (stereo not given)" result="94 °C"

----------
Listing of recorded melting point by entry.
measurement label: melting point

molecule=CCOP(=O)(Cc1cc(Cl)c(O)c(C(C)(C)C)c1)OCC result="116 °C"
molecule=COc1cc(CSc2ccc(N)nn2)cc(OC)c1OC result="143 to 146 °C"
molecule="CC(=O)OCCC1CC2=C(O1)C(C)=CC(C)(O)C2C (racemic)" result="90 to 92 °C"
molecule=CCCc1c(OCc2ccc(CSC#N)cc2)ccc(C(C)=O)c1O result="110 to 111 °C"
molecule=COC(=O)c1cc(N=C2C=CC(=O)C=C2)c(F)c(-c2ccc(Cl)cc2)n1 result="154 to 156 °C"
molecule=O=c1[nH]c2ccc(-c3cccc(Cl)c3)cc2s1 result="195 to 196 °C"
molecule="CC1(C)CCC(C)(C)c2cc3c(cc21)OCC3(C)c1cc(CO)cs1 (stereo not drawn)" result="127 °C"
molecule=COc1ccc(NC(=O)N(Cc2ccccc2)Cc2ccccn2)c(NC(=O)c2cc(C(C)(C)C)c(O)c(C(C)(C)C)c2)c1 result="165 to 166 °C"
molecule=Cc1c(F)c(N)nc(-n2cc(C(=O)O)c(=O)c3cc(F)c(F)c(Cl)c32)c1F result="253 to 257 °C"
molecule=COC(=O)c1cn2c(=O)c(C)c(C)nc2s1 result="158 to 159 °C"
molecule=C=CCC1(SC(C)=O)C(C)(C)c2ccccc2C1(C)C result="65 to 67 °C"
molecule=CN(C)c1nc(=O)c(C(C)(C)C)nn1N result="168 to 169 °C"
molecule=Oc1ncnc2cnc(NC3CC3)nc12 result="> 240 °C"
molecule=FC(F)(F)c1cccc(-c2snnc2S)c1 result="> 200 °C"
molecule=Cc1ccc2c(N3CCN(C)C3=O)ccnc2c1NC(=O)c1c(Cl)cccc1Cl result="> 250 °C"
molecule=Cc1cc(SC(Sc2cc(C)c(O)c(C(C)(C)C)c2)Sc2cc(C)c(O)c(C(C)(C)C)c2)cc(C(C)(C)C)c1O result="171 to 172 °C"
molecule=N#Cc1cnc(Nc2ccc(OCCn3ccnn3)cc2)nc1-c1ccccc1 result="178 °C"
molecule=CCC(CC)Oc1nc(C)nc(Nc2c(C)cc(C)cc2C)c1[N+](=O)[O-] result="112 to 113 °C"
molecule=N#Cc1nn(-c2c(Cl)cc(C(F)(F)F)cc2Cl)c(N)c1C(=O)C(F)(F)F result="226 °C"
molecule=CC(C)(C)OC(=O)NCCNC(=O)c1noc(N)c1-c1ccccc1 result="144 °C"
molecule="COCN1C(=O)C(NC(=O)Nc2cccc(C(=O)NS(C)(=O)=O)c2)CN(c2ccccc2)c2ccccc21 (stereo not drawn)" result="199 to 205 °C"
molecule=C[Si](C)(C)C#Cc1ccc2c(c1)C1(c3ccccc3-c3ccccc31)c1cc(C#C[Si](C)(C)C)ccc1-2 result="267 to 269 °C"
molecule=CCOC(=O)c1ccc2c(c1)c(C)c(C)n2C(C)=O result="98 to 101 °C"
molecule=N#CC(=NNc1ccc(C(=O)O)cc1)C(N)=C(C#N)C#N result="> 300 °C"
molecule=Cc1cc(C)nc(Oc2cccc(Oc3ncc(Cl)cn3)c2)n1 result="142 °C"
molecule=c1cnc(N2CCN(Cc3ccc(CN4CCN(c5ncccn5)CC4)cc3)CC2)nc1 result="193 to 195 °C"
molecule=Cc1nsc(NC(=O)Cc2ccc3oc(CC(C)(C)C)nc3c2)c1Cl result="144 to 145 °C"
molecule=C1=Cc2ccccc2OC1 result="48 to 51 °C"
molecule="CCCCC(CC)COC(=O)CSCc1cc(C(C)(C)C)c(O)c(C(C)(C)C)c1 (stereo not drawn)" result="20 °C"
molecule=O=c1[nH]c2ncc(-c3ccccc3)nc2n1CC1CCCCC1 result="253 to 255 °C"
molecule=O=C(Nc1ccc(-c2ccc(C(=O)O)cc2)cc1)OCC1c2ccccc2-c2ccccc21 result="245 to 248 °C"
molecule=Nc1nonc1C(=O)NCCCCCC(=O)NO result="150 to 152 °C"
molecule=Cc1cc(COc2ccc(C(=O)NC[C@@H](C(=O)NO)N3CCN(S(=O)(=O)C(C)C)CC3)cc2)c2ccccc2n1 result="188 °C"
molecule="CN(Cc1sc2c(=O)c(C(=O)NCc3ccc(Cl)cc3)cn(C)c2c1COCC[Si](C)(C)C)CC(O)c1ccc(C#N)s1 (stereo not drawn)" result="152 to 154 °C"
molecule=C/C(=C\c1ccc(OC(C)C)cc1Oc1ncc(C(F)(F)F)cc1Cl)C(=O)NS(=O)(=O)NCCc1cccs1 result="130 to 131 °C"
molecule="O=C(Nc1ccc(CN2C(=O)[C@H]3CCC[C@H]3Nc3ccccc32)cc1)Oc1ccccc1 (relative stereo)" result="183 to 184 °C"
molecule=O=C(Cc1ccc(Cl)cc1)c1cccc(S(=O)(=O)N2CCCCCC2)c1 result="135 to 136 °C"
molecule=CCS(=O)(=O)c1cc2c(cc1OC)CCn1c3c(c(Br)c1-2)CCCCN(C(C)(C)C)C3=O result="227 °C"
